Cited source for all entries: patent EP0713875B1

Recorded IC50 for the following compounds
Molecular target: humanen ETA-Rezeptor (Homo sapiens)
Construct: membrane preparation
Sequence (P25101 21-427): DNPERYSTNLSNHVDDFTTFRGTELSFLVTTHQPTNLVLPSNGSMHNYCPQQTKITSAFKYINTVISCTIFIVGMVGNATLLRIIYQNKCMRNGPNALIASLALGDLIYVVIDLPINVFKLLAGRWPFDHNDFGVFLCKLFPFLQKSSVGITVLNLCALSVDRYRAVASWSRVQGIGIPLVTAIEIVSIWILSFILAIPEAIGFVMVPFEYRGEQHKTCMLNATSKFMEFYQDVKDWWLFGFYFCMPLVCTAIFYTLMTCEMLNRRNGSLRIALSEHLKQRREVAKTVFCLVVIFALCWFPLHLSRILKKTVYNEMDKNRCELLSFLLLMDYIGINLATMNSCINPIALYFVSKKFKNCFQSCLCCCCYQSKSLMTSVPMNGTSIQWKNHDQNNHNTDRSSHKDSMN
Experiment: Inhibition of endothelin binding at the recombinant ETA receptor (125I-endothelin, membranes of baculovirus-infected insect cells)
Details: concentration required to inhibit 50% of the specific binding of 125I-Endothelin; incubation 2 h at 20°C or 24 h at 4°C
Enter the number, and then the unit.

COc1ccccc1Oc1c(NS(=O)(=O)c2ccc(C)cn2)nc(N2CCOCC2)nc1OCCOC(=O)Nc1ccccn1 ... 300 pM

Let us move to another entry and its IC50.
-- ask Query the reported IC50 for humanen ETA-Rezeptor (Homo sapiens); item: COc1ccccc1Oc1c(NS(=O)(=O)c2ccc(C(C)C)cn2)nc(N2CCOCC2)nc1OCCOC(=O)Nc1ccccn1
-- reply 400 pM
